Where do the numbers come from? From ChEMBL document CHEMBL4673260.

Target: UniProt:P20309
Sequence (P20309 whole entry): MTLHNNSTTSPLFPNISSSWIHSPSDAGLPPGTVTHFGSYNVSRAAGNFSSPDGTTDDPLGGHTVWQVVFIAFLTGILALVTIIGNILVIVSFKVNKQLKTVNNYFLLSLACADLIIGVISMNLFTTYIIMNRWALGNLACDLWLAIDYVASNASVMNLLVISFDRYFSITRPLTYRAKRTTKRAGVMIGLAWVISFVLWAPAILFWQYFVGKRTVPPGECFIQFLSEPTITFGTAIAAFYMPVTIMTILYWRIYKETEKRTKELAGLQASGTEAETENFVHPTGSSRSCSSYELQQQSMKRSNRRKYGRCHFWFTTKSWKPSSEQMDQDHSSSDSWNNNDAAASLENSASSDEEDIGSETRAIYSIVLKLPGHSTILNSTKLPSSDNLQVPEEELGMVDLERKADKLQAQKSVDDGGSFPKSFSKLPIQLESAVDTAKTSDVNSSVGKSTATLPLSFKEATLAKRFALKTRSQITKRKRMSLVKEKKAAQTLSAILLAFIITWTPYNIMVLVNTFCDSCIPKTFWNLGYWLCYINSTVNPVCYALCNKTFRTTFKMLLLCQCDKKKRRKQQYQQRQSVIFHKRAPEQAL
pIC50: −log10 of the molar value.
Value kind: pIC50

>>> result("CN(C)CC/C=C/c1cccnc1")
"< 5.00"

====

Target: Acetylcholinesterase (Homo sapiens)
Sequence (P22303 whole entry): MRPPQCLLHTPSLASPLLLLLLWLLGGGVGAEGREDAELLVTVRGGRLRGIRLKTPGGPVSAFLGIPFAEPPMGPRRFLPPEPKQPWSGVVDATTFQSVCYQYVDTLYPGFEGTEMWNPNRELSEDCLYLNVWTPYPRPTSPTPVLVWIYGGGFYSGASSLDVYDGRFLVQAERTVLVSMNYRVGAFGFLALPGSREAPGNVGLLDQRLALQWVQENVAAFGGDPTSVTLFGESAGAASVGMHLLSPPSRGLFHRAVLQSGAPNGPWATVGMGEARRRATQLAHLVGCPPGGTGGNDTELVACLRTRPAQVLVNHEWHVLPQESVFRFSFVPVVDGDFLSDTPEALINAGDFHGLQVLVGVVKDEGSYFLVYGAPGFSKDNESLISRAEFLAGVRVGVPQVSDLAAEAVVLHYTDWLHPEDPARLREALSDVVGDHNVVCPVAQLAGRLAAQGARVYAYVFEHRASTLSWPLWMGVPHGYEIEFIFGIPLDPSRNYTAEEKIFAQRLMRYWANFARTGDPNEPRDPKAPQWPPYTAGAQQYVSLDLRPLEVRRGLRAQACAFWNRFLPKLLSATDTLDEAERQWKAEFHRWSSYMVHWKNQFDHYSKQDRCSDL
Test: Inhibition of human erythrocyte acetylcholinesterase using acetylthiocholine as substrate preincubated for 20 mins followed by substrate addition and measured every 30 secs for 1 hr by Ellman's method
pIC50: −log10 of the molar value.
Value kind: pIC50

>>> readout_number("C/C=C1\\C2C=C(C)CC1(NCC(=O)OC)c1ccc(=O)[nH]c1C2 (stereo unspecified)")
5.17

====

Biological target: Neuronal acetylcholine receptor subunit alpha-7 (Rattus norvegicus)
Sequence (Q05941 whole entry): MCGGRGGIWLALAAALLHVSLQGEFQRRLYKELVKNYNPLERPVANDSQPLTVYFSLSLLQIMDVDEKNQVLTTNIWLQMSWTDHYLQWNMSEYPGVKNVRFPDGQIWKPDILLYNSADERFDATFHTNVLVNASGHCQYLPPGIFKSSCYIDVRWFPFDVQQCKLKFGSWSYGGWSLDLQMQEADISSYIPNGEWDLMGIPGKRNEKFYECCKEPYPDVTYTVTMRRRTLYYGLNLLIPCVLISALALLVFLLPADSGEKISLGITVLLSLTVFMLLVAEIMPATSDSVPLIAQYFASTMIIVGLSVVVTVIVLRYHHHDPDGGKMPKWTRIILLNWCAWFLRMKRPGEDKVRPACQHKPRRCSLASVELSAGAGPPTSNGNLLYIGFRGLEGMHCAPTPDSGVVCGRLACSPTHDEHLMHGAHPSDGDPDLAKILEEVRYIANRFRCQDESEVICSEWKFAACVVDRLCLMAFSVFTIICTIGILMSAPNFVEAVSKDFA
pKi: −log10 of the molar value.
Value kind: pKi

>>> readout_number("c1cncc(C2=NCCCC2)c1")
7.24
